Experiment: Stability investigation of crystal forms A, B, C, D and the amorphous form of the compound of formula (1) (related substances by HPLC, moisture, XRD, DSC)
Type: physicochemical
Settings: 105° C., opened, 5 days
measurement.label: Total related % (%)

C[C@H]1CCN1c1nc(N2C[C@@H]3[C@@H](CC(=O)O)[C@@H]3C2)c2c(n1)C(F)(F)CC2 [Crystal form B]    0.22

[a] C[C@H]1CCN1c1nc(N2C[C@@H]3[C@@H](CC(=O)O)[C@@H]3C2)c2c(n1)C(F)(F)CC2 [Crystal form A]
[b] C[C@H]1CCN1c1nc(N2C[C@@H]3[C@@H](CC(=O)O)[C@@H]3C2)c2c(n1)C(F)(F)CC2 [Crystal form D]
[c] C[C@H]1CCN1c1nc(N2C[C@@H]3[C@@H](CC(=O)O)[C@@H]3C2)c2c(n1)C(F)(F)CC2 [Crystal form C]
stdin: Number of compounds to sort: 3. Sort criterion: Total related %, ascending. A complete answer lists every label in the requested sequence.
stdout: a, b, c

###

Assay: Stability investigation of crystal forms A, B, C, D and the amorphous form of the compound of formula (1) (related substances by HPLC, moisture, XRD, DSC)
Assay type: physicochemical
Conditions: 25° C., RH 92.5%, closed, 10 days
measurement.label: Moisture % (%)

C[C@H]1CCN1c1nc(N2C[C@@H]3[C@@H](CC(=O)O)[C@@H]3C2)c2c(n1)C(F)(F)CC2 [Crystal form D]    0.092

[1] C[C@H]1CCN1c1nc(N2C[C@@H]3[C@@H](CC(=O)O)[C@@H]3C2)c2c(n1)C(F)(F)CC2 [Crystal form C]
[2] C[C@H]1CCN1c1nc(N2C[C@@H]3[C@@H](CC(=O)O)[C@@H]3C2)c2c(n1)C(F)(F)CC2 [Crystal form B]
[3] C[C@H]1CCN1c1nc(N2C[C@@H]3[C@@H](CC(=O)O)[C@@H]3C2)c2c(n1)C(F)(F)CC2 [Amorphous form]
[4] C[C@H]1CCN1c1nc(N2C[C@@H]3[C@@H](CC(=O)O)[C@@H]3C2)c2c(n1)C(F)(F)CC2 [Crystal form A]
stdin: Number of molecules to sort: 4. Sort criterion: Moisture %, ascending. A complete answer lists every label in the requested sequence.
stdout: 1, 2, 4, 3
(1: 0.09%, 2: 0.35%, 4: 0.54%, 3: 2.8%)

###

Test: Stability investigation of crystal forms A, B, C, D and the amorphous form of the compound of formula (1) (related substances by HPLC, moisture, XRD, DSC)
Assay type: physicochemical
Details: 25° C., RH 92.5%, closed, 10 days
Source text: […] Determination of related substances: determined according to 0512 HPLC in General Principle (Volume IV) of Chinese Pharmacopoeia (2015 Version). Moisture determination: determined according to 2 Coulometric Titration in the First Method (Karl Fischer titration) of 0832 Moisture Determination Method in General Principle (Volume IV) of Chinese Pharmacopoeia (2015 Version). […]
measurement.label: Total related % (%)

C[C@H]1CCN1c1nc(N2C[C@@H]3[C@@H](CC(=O)O)[C@@H]3C2)c2c(n1)C(F)(F)CC2 [Amorphous form]    0.35
C[C@H]1CCN1c1nc(N2C[C@@H]3[C@@H](CC(=O)O)[C@@H]3C2)c2c(n1)C(F)(F)CC2 [Crystal form A]    0.24
C[C@H]1CCN1c1nc(N2C[C@@H]3[C@@H](CC(=O)O)[C@@H]3C2)c2c(n1)C(F)(F)CC2 [Crystal form D]    0.38

[a] C[C@H]1CCN1c1nc(N2C[C@@H]3[C@@H](CC(=O)O)[C@@H]3C2)c2c(n1)C(F)(F)CC2 [Crystal form B]
[b] C[C@H]1CCN1c1nc(N2C[C@@H]3[C@@H](CC(=O)O)[C@@H]3C2)c2c(n1)C(F)(F)CC2 [Crystal form C]
stdin: Hi! Which is lower in terms of Total related %, the first one a or the second one b ? Your answer should be the label attached to the chosen record.
stdout: a

###

Assay: Stability investigation of crystal forms A, B, C, D and the amorphous form of the compound of formula (1) (related substances by HPLC, moisture, XRD, DSC)
Type: physicochemical
Settings: 25° C., RH 92.5%, opened, 10 days
measurement.label: Moisture % (%)

C[C@H]1CCN1c1nc(N2C[C@@H]3[C@@H](CC(=O)O)[C@@H]3C2)c2c(n1)C(F)(F)CC2 [Crystal form C]    0.11
C[C@H]1CCN1c1nc(N2C[C@@H]3[C@@H](CC(=O)O)[C@@H]3C2)c2c(n1)C(F)(F)CC2 [Crystal form B]    0.26
C[C@H]1CCN1c1nc(N2C[C@@H]3[C@@H](CC(=O)O)[C@@H]3C2)c2c(n1)C(F)(F)CC2 [Crystal form D]    0.048

[a] C[C@H]1CCN1c1nc(N2C[C@@H]3[C@@H](CC(=O)O)[C@@H]3C2)c2c(n1)C(F)(F)CC2 [Crystal form A]
[b] C[C@H]1CCN1c1nc(N2C[C@@H]3[C@@H](CC(=O)O)[C@@H]3C2)c2c(n1)C(F)(F)CC2 [Amorphous form]
stdin: Of a and b , which one carries the higher reported Moisture %? Your answer should be the label attached to the chosen record.
stdout: b
(b: 3.1%, a: 0.54%)

###

Assay: Stability investigation of crystal forms A, B, C, D and the amorphous form of the compound of formula (1) (related substances by HPLC, moisture, XRD, DSC)
Type: physicochemical
Conditions: 40° C., RH 75%, opened, 1 M
measurement.label: Total related % (%)

Please review the entries below; each comes with its answer.
C[C@H]1CCN1c1nc(N2C[C@@H]3[C@@H](CC(=O)O)[C@@H]3C2)c2c(n1)C(F)(F)CC2 [Crystal form B]    0.09
C[C@H]1CCN1c1nc(N2C[C@@H]3[C@@H](CC(=O)O)[C@@H]3C2)c2c(n1)C(F)(F)CC2 [Crystal form C]    1.31
C[C@H]1CCN1c1nc(N2C[C@@H]3[C@@H](CC(=O)O)[C@@H]3C2)c2c(n1)C(F)(F)CC2 [Crystal form A]    0.24

[1] C[C@H]1CCN1c1nc(N2C[C@@H]3[C@@H](CC(=O)O)[C@@H]3C2)c2c(n1)C(F)(F)CC2 [Crystal form D]
[2] C[C@H]1CCN1c1nc(N2C[C@@H]3[C@@H](CC(=O)O)[C@@H]3C2)c2c(n1)C(F)(F)CC2 [Amorphous form]
stdin: Hi! Which is lower in terms of Total related %, the first one 1 or the second one 2 ? Your answer should be the label attached to the chosen record.
stdout: 1

###

Assay: Stability investigation of crystal forms A, B, C, D and the amorphous form of the compound of formula (1) (related substances by HPLC, moisture, XRD, DSC)
Type: physicochemical
Settings: Avoid light for 18 days
measurement.label: Trait

C[C@H]1CCN1c1nc(N2C[C@@H]3[C@@H](CC(=O)O)[C@@H]3C2)c2c(n1)C(F)(F)CC2 [Crystal form C]    Off-white power
C[C@H]1CCN1c1nc(N2C[C@@H]3[C@@H](CC(=O)O)[C@@H]3C2)c2c(n1)C(F)(F)CC2 [Amorphous form]    Off-white power
C[C@H]1CCN1c1nc(N2C[C@@H]3[C@@H](CC(=O)O)[C@@H]3C2)c2c(n1)C(F)(F)CC2 [Crystal form D]    Off-white power
C[C@H]1CCN1c1nc(N2C[C@@H]3[C@@H](CC(=O)O)[C@@H]3C2)c2c(n1)C(F)(F)CC2 [Crystal form A]    Off-white power

###

Test: Stability investigation of crystal forms A, B, C, D and the amorphous form of the compound of formula (1) (related substances by HPLC, moisture, XRD, DSC)
Assay type: physicochemical
Conditions: 105° C., opened, 5 days
measurement.label: DSC (°C)

C[C@H]1CCN1c1nc(N2C[C@@H]3[C@@H](CC(=O)O)[C@@H]3C2)c2c(n1)C(F)(F)CC2 [Crystal form D]    167.19
C[C@H]1CCN1c1nc(N2C[C@@H]3[C@@H](CC(=O)O)[C@@H]3C2)c2c(n1)C(F)(F)CC2 [Crystal form A]    170.65
C[C@H]1CCN1c1nc(N2C[C@@H]3[C@@H](CC(=O)O)[C@@H]3C2)c2c(n1)C(F)(F)CC2 [Crystal form C]    171.85

###

Experiment: Stability investigation of crystal forms A, B, C, D and the amorphous form of the compound of formula (1) (related substances by HPLC, moisture, XRD, DSC)
Type: physicochemical
Conditions: Avoid light for 18 days
measurement.label: XRD

C[C@H]1CCN1c1nc(N2C[C@@H]3[C@@H](CC(=O)O)[C@@H]3C2)c2c(n1)C(F)(F)CC2 [Crystal form D]    Same as day 0
C[C@H]1CCN1c1nc(N2C[C@@H]3[C@@H](CC(=O)O)[C@@H]3C2)c2c(n1)C(F)(F)CC2 [Crystal form C]    Same as day 0
C[C@H]1CCN1c1nc(N2C[C@@H]3[C@@H](CC(=O)O)[C@@H]3C2)c2c(n1)C(F)(F)CC2 [Crystal form A]    Same as day 0
C[C@H]1CCN1c1nc(N2C[C@@H]3[C@@H](CC(=O)O)[C@@H]3C2)c2c(n1)C(F)(F)CC2 [Crystal form B]    Same as day 0

meta.source: patent US20230271947A1
